src = PubChem BioAssay (NCI)

- Test system: OVCAR-8 ovarian
- assay: NCI-60 one-dose screen, 48 h (100 = growth as untreated, 0 = no growth, -100 = all killed)
- condition_label: 10 µM unless noted
This is part of a sample that, as a whole, favours compounds with a hit. Of some 83,000 tested, about 20% had one in any assay.
measurement_kind: growth (%)
Give the value, in units of %, as a plain number.

## Task Please give the measured growth for this compound: O=C(NCCCCO)c1cncnc1Nc1ccc2c(ccn2Cc2cccc(F)c2)c1
## Result 101

## Task Please give the measured growth for this compound: CSc1nc(-c2ccco2)c(C#N)c(=O)n1C
## Result 108

## Task Please give the measured growth for this compound: C=C(C)[C@@H]1CC[C@]2(CO)CC[C@]3(C)[C@H](CC[C@@H]4[C@@](C)(CCCN)[C@H](C(=C)C)CC[C@]43C)[C@@H]12
## Result -40.4

## Task Please give the measured growth for this compound: Cc1ccc(OCCOCCOCCOCCOCCOc2ccc(C)n(O)c2=S)c(=S)n1O
## Result 14.1

## Task Please give the measured growth for this compound: Cc1cn(C)cn1
## Result 106

## Task Please give the measured growth for this compound: COc1ccc2cc(-c3nc4ccc(C)cn4c3NCc3ccco3)c(=O)[nH]c2c1
## Result 78.5

## Task Please give the measured growth for this compound: c1cc(OCCN2CCCCC2)ccc1CNc1ccc2nc(CCC3CCCCC3)[nH]c2c1
## Result 36.6

## Task Please give the measured growth for this compound: ClCCn1cnc2c(SCc3ccccc3)ncnc21
## Result 41.8

## Task Please give the measured growth for this compound: Cc1nn(-c2ccc([N+](=O)[O-])cc2)c2ncnc(N/N=C/c3ccccc3O)c12
## Result 14.5
